Target: SARS-CoV-2 RBD (RBD-2) (SARS-CoV-2)
Test: flow, HeLa-ACE2, mAb:RBD=2:1
valueType: MFI (RBD binding to cell surface)
Kindly provide the number alone.

Ask: # MFI (RBD binding to cell surface) lookup, item L12.bP10G07 (antibody, V domains shown, human IgG1) VH: EVQLVQSGAEVKKPGASVKVSCKASGYIYSGYYMHWVRQAPGQGLEWMGWISPDSGGTNYAQRFQGRVTMTRDTSTTTAYMELSRLRSDDTAMYYCARGPRYSGTYFDYWGQGTLVTVSS VL: QTVVTQPASVSGSPGQSITISCTGTSSDVGGYNYVSWYQQHPDKAPKLIIYDVSNRPSGVSNRFSGSKSGNTASLTISGLQAEDEAAYYCSSYTSSSTQVFGGGTKLTVL
Result: 7120
